- assay.system: T1, human VEGF (hVEGF) (human, UniProt P15692 181-395);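 note: fab variants injected over immobilized hVEGF on a CM5 chip, rate constants fitted with a one-to-one Langmuir model, Kd derived as koff over kon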
- T1 construct: also called VEGF-A
- T1 sequence: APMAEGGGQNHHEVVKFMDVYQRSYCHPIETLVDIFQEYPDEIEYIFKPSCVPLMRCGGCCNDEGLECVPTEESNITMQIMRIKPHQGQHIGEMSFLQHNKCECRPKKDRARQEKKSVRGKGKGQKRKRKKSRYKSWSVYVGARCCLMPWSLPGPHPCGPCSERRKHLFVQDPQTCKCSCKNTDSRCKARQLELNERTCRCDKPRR
- assay.name: SPR
quantity.measured: pKd
Answer as the number alone; pKd is minus log10 of concentration in mol/L.

Observe how each entry below is paired with its result.
binder	pKd
LCcombo3 (G6.31 WT VH with LCcombo3 VL) (Fab, V domains shown, Fab) VH: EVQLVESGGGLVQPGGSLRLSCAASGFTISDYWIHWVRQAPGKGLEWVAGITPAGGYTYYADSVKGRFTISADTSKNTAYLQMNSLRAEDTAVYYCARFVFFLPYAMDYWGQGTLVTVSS VL: DIQMTQSPESLSASVGDEVTITCRASQDVSTAVAWYQQKPGEAPKLLIYSASFLYSGVPSRFSGSGSGTDFTLTISSLQPEDAATYYCQQGYGAPFTFGQGTKVEIK	8.87
HCcombo (Fab, V domains shown, Fab) VH: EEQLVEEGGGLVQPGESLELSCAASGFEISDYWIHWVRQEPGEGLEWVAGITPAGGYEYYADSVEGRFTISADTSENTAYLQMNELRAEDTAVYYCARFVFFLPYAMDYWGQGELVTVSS VL: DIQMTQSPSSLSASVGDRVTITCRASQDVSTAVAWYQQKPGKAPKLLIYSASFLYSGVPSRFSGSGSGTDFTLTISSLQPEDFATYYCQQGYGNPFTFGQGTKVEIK	9.87

Identify the reported pKd for the following entry. LCcombo2 (G6.31 WT VH with LCcombo2 VL) (Fab, V domains shown, Fab) VH: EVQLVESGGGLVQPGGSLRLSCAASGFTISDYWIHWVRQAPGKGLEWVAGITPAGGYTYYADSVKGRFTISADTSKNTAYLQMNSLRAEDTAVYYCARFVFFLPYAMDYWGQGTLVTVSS VL: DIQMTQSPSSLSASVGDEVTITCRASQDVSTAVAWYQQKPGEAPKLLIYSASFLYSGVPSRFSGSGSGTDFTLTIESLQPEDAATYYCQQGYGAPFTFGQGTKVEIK
8.95

Identify the reported pKd for the following entry. HCLC3 (Fab, V domains shown, Fab) VH: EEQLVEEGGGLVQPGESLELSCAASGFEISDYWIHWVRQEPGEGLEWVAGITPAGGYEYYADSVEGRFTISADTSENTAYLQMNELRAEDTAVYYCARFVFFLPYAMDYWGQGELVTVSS VL: DIQMTQSPESLSASVGDEVTITCRASQDVSTAVAWYQQKPGEAPKLLIYSASFLYSGVPSRFSGSGSGTDFTLTISSLQPEDAATYYCQQGYGAPFTFGQGTKVEIK
9.48

Identify the reported pKd for the following entry. HCLC5 (Fab, V domains shown, Fab) VH: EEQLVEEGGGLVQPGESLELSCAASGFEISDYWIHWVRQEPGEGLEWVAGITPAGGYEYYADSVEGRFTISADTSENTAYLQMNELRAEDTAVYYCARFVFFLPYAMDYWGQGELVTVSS VL: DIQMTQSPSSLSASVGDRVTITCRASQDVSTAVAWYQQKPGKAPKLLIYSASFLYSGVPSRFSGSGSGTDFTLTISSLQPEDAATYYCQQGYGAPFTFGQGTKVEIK
9.50
